These measurements were taken from paper PMC12926254.

System: gastric mucosa
assay protocol: Ulcerogenic liability (ulcer index)
Type: in vivo
study conditions: 50 mg/kg orally, three successive days, rats
Marks after values point to notes of the source that are not given here.
property: Average no of ulcer

Illustrative cases are given below, each with its answer.
INSERT INTO assay_data (compound, property, result_value) VALUES
  ('Cc1ccc(-c2cc(C(F)(F)F)nn2-c2ccc(S(N)(=O)=O)cc2)cc1 [Celecoxib, celecoxib, reference compound]', 'Average no of ulcer', '0.48 ± 0.015***^b'),
  ('CCOC(=O)COc1ccc(C2=NN(c3ccc(S(C)(=O)=O)cc3)C(c3ccc(Br)cc3)C2)cc1 (stereo not shown)', 'Average no of ulcer', '0.40 ± 0.006^b'),
  ('CCOC(=O)COc1ccc(C2=NN(c3ccc(S(C)(=O)=O)cc3)C(c3cc(OC)c(OC)c(OC)c3)C2)cc1 (stereo not shown) [Compound 15d]', 'Average no of ulcer', '0.47 ± 0.006^b');

# context switch: different compound, same Average no of ulcer
Please list Average no of ulcer recorded for the compound CCOC(=O)COc1ccc(C2=NN(c3ccc(S(C)(=O)=O)cc3)C(c3ccc(OC)cc3)C2)cc1 (stereo not shown) [Compound 15c] 0.55 ± 0.012***^b

----------
target: COX-2 (Homo sapiens)
Sequence (P35354 18-604): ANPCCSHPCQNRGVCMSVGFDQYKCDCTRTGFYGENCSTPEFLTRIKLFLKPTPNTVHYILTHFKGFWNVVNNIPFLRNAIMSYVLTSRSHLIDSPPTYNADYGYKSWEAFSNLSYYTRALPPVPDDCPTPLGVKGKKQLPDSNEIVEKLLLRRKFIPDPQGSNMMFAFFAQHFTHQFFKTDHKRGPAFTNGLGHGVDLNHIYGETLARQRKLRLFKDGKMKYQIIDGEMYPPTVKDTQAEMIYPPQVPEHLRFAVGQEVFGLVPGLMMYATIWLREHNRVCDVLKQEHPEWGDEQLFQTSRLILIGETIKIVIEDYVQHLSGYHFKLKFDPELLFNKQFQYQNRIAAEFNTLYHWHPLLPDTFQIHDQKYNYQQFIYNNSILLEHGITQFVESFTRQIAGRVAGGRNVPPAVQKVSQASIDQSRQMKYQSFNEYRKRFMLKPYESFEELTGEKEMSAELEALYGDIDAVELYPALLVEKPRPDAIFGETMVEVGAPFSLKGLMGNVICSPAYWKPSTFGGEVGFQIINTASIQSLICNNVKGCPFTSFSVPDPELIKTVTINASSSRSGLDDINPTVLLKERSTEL
property: pIC50
Numbers only, as −log10 of the molar value.

Illustrative cases are given below, each with its answer.
INSERT INTO results (compound, result_value) VALUES
  ('CCOC(=O)COc1ccc(C2=NN(c3ccc(S(C)(=O)=O)cc3)C(c3ccccc3Br)C2)cc1 (stereo not shown) [Compound 15 g]', 6.24),
  ('CCOC(=O)COc1ccc(C2=NN(c3ccc(S(C)(=O)=O)cc3)C(c3ccccc3)C2)cc1 (stereo not shown) [Compound 15a]', 5.41),
  ('CCOC(=O)COc1ccc(C2=NN(c3ccc(S(C)(=O)=O)cc3)C(c3ccc(OC)cc3)C2)cc1 (stereo not shown) [Compound 15c]', 6.40),
  ('CCOC(=O)COc1ccc(C2=NN(c3ccc(S(C)(=O)=O)cc3)C(c3ccc([N+](=O)[O-])cc3)C2)cc1 (stereo not shown) [Compound 15f]', 5.80),
  ('CCOC(=O)COc1ccc(C2=NN(c3ccc(S(C)(=O)=O)cc3)C(c3ccc(C)cc3)C2)cc1 (stereo not shown) [Compound 15b]', 5.71);

Items follow; give pIC50 for each.
1. CCOC(=O)COc1ccc(C2=NN(c3ccc(S(C)(=O)=O)cc3)C(c3ccc(Cl)cc3)C2)cc1 (stereo not shown) [Compound 15e]
2. CCOC(=O)COc1ccc(C2=NN(c3ccc(S(C)(=O)=O)cc3)C(c3cc(OC)c(OC)c(OC)c3)C2)cc1 (stereo not shown) [Compound 15d]

1: 6.13; 2: 6.66

----------
Kindly state % inhibition (edema) for each of the entries shown.
System: carrageenan-induced rat paw edema
assay protocol: Carrageenan-induced rat paw edema assay; also: time not given here
Assay type: in vivo
study conditions: 50 mg/kg
Give bare numbers, in %.

Illustrative cases are given below, each with its answer.
INSERT INTO measurements (compound, result_units, result_value) VALUES
  ('CCOC(=O)COc1ccc(C2=NN(c3ccc(S(C)(=O)=O)cc3)C(c3ccc(OC)cc3)C2)cc1 (stereo not shown) [Compound 15c]', '%', 70.02),
  ('Cc1ccc(-c2cc(C(F)(F)F)nn2-c2ccc(S(N)(=O)=O)cc2)cc1 [Celecoxib, celecoxib, reference compound]', '%', 97.48),
  ('CCOC(=O)COc1ccc(C2=NN(c3ccc(S(C)(=O)=O)cc3)C(c3cc(OC)c(OC)c(OC)c3)C2)cc1 (stereo not shown) [Compound 15d]', '%', 80.29);

# context switch: different compound, same % inhibition (edema)
Please indicate recorded % inhibition (edema) of CCOC(=O)COc1ccc(C2=NN(c3ccc(S(C)(=O)=O)cc3)C(c3ccc(Br)cc3)C2)cc1 (stereo not shown) measured with carrageenan-induced rat paw edema. 82.28
